System tested: T1, huCLL1-K244-Avi-Tev-His (human, UniProt Q5QGZ9 65-265)
T1 construct: extracellular domain
T1 sequence (looked up): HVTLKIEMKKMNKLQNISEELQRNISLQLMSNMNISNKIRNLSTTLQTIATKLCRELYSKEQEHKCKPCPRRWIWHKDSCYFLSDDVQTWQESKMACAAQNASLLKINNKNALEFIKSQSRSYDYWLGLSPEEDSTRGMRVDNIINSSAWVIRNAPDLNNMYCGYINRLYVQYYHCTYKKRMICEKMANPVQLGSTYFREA
Measurement description: BLI
Measurement type: binding result

Polypeptide No. 183 (scFv, V domains shown, scFv) VH: QVQLVQSGAEVKKPGSSVKVSCKASGGTFSSYAISWVRQAPGQGLEWMGGIIPKFGPPNYAPKFQGRVTITADESTSTAYMELSSLRSEDTAVYYCARNSYGDDFDYWGQGTLVTVSS VL: DIQMTQSPSSLSASVGDRVTITCRASQSISSWLAWYQQKPGKAPKLLIYAASSLQRGVPSRFSGSGSGTDFTLTISSLQPEDFATYYCQQSYSTPLTFGQGTKVEIKR = binds
Polypeptide No. 175 (scFv, V domains shown, scFv) VH: QVQLVQSGAEVKKPGASVKVSCKASGYTFTSYDIHWVRQAPGQGLEWMGWINPNSGNTGYAQKFQGRVTMTRDTSTSTVYMELSSLRSEDTAVYYCAGGPDVDAAMVLDYWGQGTLVTVSS VL: DIQMTQSPSSLSASVGDRVTITCQASQDISNYLNWYQQKPGKAPKLLIYDASNLETGVPSRFSGSGSGTDFTLTISSLQPEDFATYYCQQADGFPPTFGGGTKVEIKR = binds
Polypeptide No. 163 (scFv, V domains shown, scFv) VH: QVQLVQSGAEVKKPGASVKVSCKASGYTFTSYYMQWVRQAPGQGLEWMGWMNPNSGNTGYAQKFQGRVTMTRDTSTSTVYMELSSLRSEDTAVYYCARALYGDYLDIWGQGTTVTVSS VL: DIQMTQSPSSLSASVGDRVTITCRASQPIATWLAWYQQKPGKAPKLLIYDTSSLQSGVPSRFSGSGSGTDFTLTISSLQPEDFATYYCQQSYSLPLGFGQGTKVEIKR = binds
